Test system: full length human vWF
Assay: 3-point dot blot screen, full length human vWF
Assay type: binding
Conditions: 20 nM full length human vWF, ratio of fraction of aptamer bound with target protein to fraction bound without protein
Observed property: Screen- Human/No Protein
Form: value (number only, do not type unit).

[[record]]
molecule = "AMX237.F9: DNA SELEX 2 aptamer clone (nucleic acid, DNA, backbone not given here, DNA SELEX 2 aptamer clone) DNA: CTACCTACGATCTGACTAGCTTGGTAGCGATTCTGTGGAGCTGCGGTTTGGTCGACGTCAGCTTACTCTCATGTAGTTCC"
measurement = 2.21

[[record]]
molecule = "AMX236.G4: DNA SELEX 2 aptamer clone (nucleic acid, DNA, backbone not given here, DNA SELEX 2 aptamer clone) CTACCTACGATCTGACTAGCTTGGTAGCGACTTTGTGGAGATGCGGTTTGGTTGACGTCAGCTTACTCTCATGTAGTTCC"
measurement = 1.70


Next molecule, please.
Task: Given AMX236.H2: DNA SELEX 2 aptamer clone (nucleic acid, DNA, backbone not given here, DNA SELEX 2 aptamer clone) CTACCTACGATCTGACTAGCGTGCAGTGCCTATCCCAGGCCGTGCGGTAGCCTCCGTCACGCTTACTCTCATGTAGTTCC , state its recorded Screen- Human/No Protein.
Output: 2.12
